Every entry's value here was drawn from the supplement of paper PMC13380429.

# Test system: Vero E6 infected with SARS-CoV-2
# procedure_summary: inhibition of SARS-CoV-2 cytopathic effect; higher = more antiviral protection, active = above 15
# run_parameters: 833.33 nM; 48 h
measurement_name: inhibition of SARS-CoV-2 cytopathic effect

[[record]]
compound = "Cc1cc2nc3c(=O)[nH]c(=O)nc-3n(C)c2cc1C=O"
measured_value = "2.07% (inactive)"

[[record]]
compound = "O=C(O)Cn1c2c(c3cc(F)ccc31)CN(C(=O)c1cccc3ccccc13)CC2"
measured_value = "-0.82% (inactive)"

[[record]]
compound = "C[C@]12CCC(=O)C[C@@H]1CC[C@@H]1[C@@H]2CC[C@]2(C)C=CC[C@@H]12"
measured_value = "0.87% (inactive)"

[[record]]
compound = "Cc1ccc(S(=O)(=O)n2c(N)nc3ccccc32)cc1"
measured_value = "-2.7% (inactive)"

[[record]]
compound = "COc1ccc(CNCc2cccc3ccccc23)cc1"
measured_value = "-2.06% (inactive)"

[[record]]
compound = "C=C1/C(=C\\C=C2/CCC[C@]3(C)[C@@H]([C@H](C)/C=C/[C@H](C)C(C)C)CC[C@@H]23)C[C@@H](O)C[C@@H]1O"
measured_value = "2.04% (inactive)"

[[record]]
compound = "Cc1sc(N)c(C(=O)c2cccc(C(F)(F)F)c2)c1C"
measured_value = "-3.27% (inactive)"

[[record]]
compound = "Cc1cc(C(=O)NOCCO)c(Nc2ccc(I)cc2F)n(C)c1=O"
measured_value = "-15.5% (inactive)"

[[record]]
compound = "CC(C)c1c(NC(=O)Nc2ccc(Cl)cc2)c(=O)n(-c2ccccc2)n1C"
measured_value = "-1.16% (inactive)"

[[record]]
compound = "CCN(C(=O)c1c(O)c2c(Cl)cccc2n(C)c1=O)c1ccccc1"
measured_value = "-5.3% (inactive)"

[[record]]
compound = "CCOC(=O)C1=C(C)NC(C)=C(C(=O)OC)[C@@H]1c1cccc([N+](=O)[O-])c1 (racemic)"
measured_value = "-0.45% (inactive)"

[[record]]
compound = "c1ccc(Oc2nc(NC3CCCCC3)c3[nH]cnc3n2)cc1"
measured_value = "-1.49% (inactive)"

[[record]]
compound = "Nc1ncn([C@@H]2O[C@H](CO)[C@@H](O)[C@H]2O)c(=O)n1"
measured_value = "-0.22% (inactive)"

[[record]]
compound = "NC(N)=Nc1nc(CSCC/C(N)=N/S(N)(=O)=O)cs1 [Famotidine]"
measured_value = "-0.03% (inactive)"

[[record]]
compound = "NC(=S)N/N=C/c1ncccc1N"
measured_value = "3.25% (inactive)"

[[record]]
compound = "CCCCC/C=C\\C=C\\CCCCCCCCC(=O)O [trans-10,cis-12-conjugated-linoleic-acid]"
measured_value = "-2.64% (inactive)"

[[record]]
compound = "C[C@]12CC[C@@H]3c4ccc(OS(=O)(=O)O)cc4CC[C@H]3[C@@H]1CCC2=O [estropipate]"
measured_value = "1.96% (inactive)"

[[record]]
compound = "NCCNCCNCCN"
measured_value = "2.74% (inactive)"

[[record]]
compound = "Cc1cc(O)ccc1Cl"
measured_value = "1.63% (inactive)"

[[record]]
compound = "Cc1cc(I)ccc1Nc1c(C(=O)NOCC2CC2)cc(F)c(F)c1F"
measured_value = "-0.67% (inactive)"

[[record]]
compound = "CCCCCCCCCCC(C)(C)C(=O)Nc1c(OC)cc(OC)cc1OC"
measured_value = "0.51% (inactive)"

[[record]]
compound = "CC[C@]1(O)C[C@@H]2CN(CCc3c([nH]c4ccccc34)[C@@](C(=O)OC)(c3cc4c(cc3OC)N(C)[C@H]3[C@@](O)(C(N)=O)[C@H](O)[C@]5(CC)C=CCN6CC[C@]43[C@@H]65)C2)C1"
measured_value = "0.62% (inactive)"

[[record]]
compound = "CC(C)(C)c1ccc(C(O)CCCN2CCC(C(O)(c3ccccc3)c3ccccc3)CC2)cc1 (centres undefined)"
measured_value = "-3.56% (inactive)"

[[record]]
compound = "Nc1c(S(=O)(=O)O)cc(Nc2cccc3ccccc23)c2c1C(=O)c1ccccc1C2=O"
measured_value = "-1.16% (inactive)"

[[record]]
compound = "COc1ccc(-c2coc3cc(O)cc(O)c3c2=O)cc1"
measured_value = "-1.7% (inactive)"

[[record]]
compound = "O=C(O)COc1ccc(/C=C2\\SC(=O)NC2=O)cc1"
measured_value = "4.16% (inactive)"

[[record]]
compound = "C[N+]1(C)[C@@H]2CC[C@H]1C[C@@H](OC(=O)C(CO)c1ccccc1)C2 (some centres undefined) [methylatropine-nitrate]"
measured_value = "4.12% (inactive)"

[[record]]
compound = "Cc1c(-c2ccc(O)cc2)n(Cc2ccc(OCCN3CCCCCC3)cc2)c2ccc(O)cc12"
measured_value = "-5.76% (inactive)"

[[record]]
compound = "S=C(NCCc1ccccn1)Nc1ccc(Br)cn1"
measured_value = "1.44% (inactive)"

